For each of the molecules below, state its inhibition.
assay-system: N-glycosylase/DNA lyase (Homo sapiens);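 also: OGG1 cleavage of a quenched duplex DNA oligonucleotide, coupled to APE1 for strand incision, read as fluorescence at 594 nm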
condition: Compound Concentration 1.0 uM, Hit No
Description: Inhibition of OGG1 by quantifying inhibition of OGG1-mediated cleavage and dissociation of quenched duplex DNA oligonucleotides, measured as fluorescence at 594 nm. To generate a functional strand incision and increase turn-over this assay is coupled to APE1.
Give bare numbers, in %.

Illustrative cases are given below, each with its answer.
Inquiry: Form field: reported inhibition of `COc1c(OCCCN2CCOCC2)ccc2c1N=C(NC(=O)c1cnc(N)nc1)N1CCN=C21`
Reply text: 5.38

Inquiry: Returns the measured inhibition for the input molecule. Input: `O=C(NCCCC1CCCCC1)c1ccc(CNC(=O)c2cnn(-c3ccccc3)c2C(F)(F)F)cc1`
Reply text: 7.9

Inquiry: What measured inhibition goes with `CNC(=O)Nc1ccc2c(c1)CC[C@@]21OC(=O)N(CC(=O)N(Cc2ccc(F)cc2)[C@@H](C)C(F)(F)F)C1=O` ?
Reply text: -4.69

Inquiry: Name the reported inhibition value associated with the molecule CS(=O)(=O)N1CCCC(NC(=O)[C@H](CCC2CCCCC2)NC(=O)c2ccc(CNC(=O)c3cnc4ccccn34)cc2)C1 (some centres not stated)
Reply text: -1.52

Inquiry: Give its inhibition value. Item: `C[C@@H]1CN(c2cc(-c3n[nH]c4ccc(OC5(C)CC5)cc34)ncn2)C[C@H](C)O1`
Reply text: 12.9

Inquiry: GET /values?readout=inhibition&item= `Cc1cccc(-c2[nH]c(CNc3ccccc3F)nc2-c2ccc3ncnn3c2)n1`
Reply text: 4.54

Consider the additional molecule presented here.
Inquiry: Item under review: `COCCOc1nc(-c2ccc(Cl)nc2)nc2c1CN(C(=O)c1ncn3ccccc13)CC2` . Reported inhibition?
Reply text: -1.84

// provenance: ChEMBL document CHEMBL5665443
